Molecular target: mA2a/CHO (Mus musculus (Mouse))
Sequence (Q60613 whole entry): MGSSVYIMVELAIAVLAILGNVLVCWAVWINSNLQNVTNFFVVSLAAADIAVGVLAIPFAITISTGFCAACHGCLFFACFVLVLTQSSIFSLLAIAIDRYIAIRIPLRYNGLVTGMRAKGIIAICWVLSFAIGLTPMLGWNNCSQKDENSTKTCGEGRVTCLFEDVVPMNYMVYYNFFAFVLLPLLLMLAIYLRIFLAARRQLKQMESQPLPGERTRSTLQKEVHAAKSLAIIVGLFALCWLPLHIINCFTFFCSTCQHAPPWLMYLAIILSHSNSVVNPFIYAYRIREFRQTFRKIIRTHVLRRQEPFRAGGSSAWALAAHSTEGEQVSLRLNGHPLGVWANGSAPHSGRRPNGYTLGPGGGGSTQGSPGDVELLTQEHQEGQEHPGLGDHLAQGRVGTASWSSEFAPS
Test: cAMP inhibition assay in mA2a/CHO cells, 10 μM adenosine
Format: cell-based
Details: read-out: cAMP & FLIPR IC50 (nM) mA2a
// NB: equality with 20 nM counts as class 0; only IC50 strictly below is class 1

# example entries with known answers
CN1CCC[C@@H]1CNC(=O)c1nc(-c2ccc3ncn(C)c3c2)c(-n2nccn2)nc1N : class 0
Cc1cnc2ccc(-c3nc(C(=O)NCCC(=O)N4CCCCC4)c(N)nc3-c3ncco3)cn12 : class 1
COC(C)CNC(=O)c1nc(-c2ccc3ncc(C)n3c2)c(-c2ncco2)nc1N (racemic) [Example 228] : class 0
Cc1cnc2ccc(-c3nc(C(=O)NC(C)C)c(N)nc3-c3ncco3)cn12 : class 1

Problem: For the compound Cc1cnc2ccc(-c3nc(C(=O)NC[C@@H]4CC(F)(F)CN4C)c(N)nc3-c3ncco3)cn12 , is IC50 under 20 nM?
class 1

Problem: For the compound Cc1cnc2ccc(-c3nc(C(=O)NCC4CCCN4C)c(N)nc3-c3ncco3)cn12 (single isomer, unassigned) [Example 120] , is IC50 under 20 nM?
class 0

Problem: For the compound Cc1ccc(-c2nc(N)c(C(=O)NCc3c(F)cccc3F)nc2-c2ccc(=O)n(C)c2)o1 , is IC50 under 20 nM?
class 0

###

Biological target: hA2b/CHO (Homo sapiens (Human), UniProt P29275)
Sequence (P29275 whole entry): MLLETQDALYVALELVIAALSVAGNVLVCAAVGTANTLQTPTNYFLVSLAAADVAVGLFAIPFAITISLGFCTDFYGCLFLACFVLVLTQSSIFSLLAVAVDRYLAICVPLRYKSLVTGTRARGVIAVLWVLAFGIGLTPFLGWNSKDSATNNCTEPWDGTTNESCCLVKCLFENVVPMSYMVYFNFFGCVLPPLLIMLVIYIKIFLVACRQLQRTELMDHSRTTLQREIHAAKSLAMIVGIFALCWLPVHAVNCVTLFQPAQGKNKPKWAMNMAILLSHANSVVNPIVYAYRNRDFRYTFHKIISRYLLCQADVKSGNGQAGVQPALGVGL
Experiment: cAMP inhibition assay in hA2b/CHO cells, 10 μM adenosine;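 note: cells exposed to compound 30 min at 37 °C, then stimulated with adenosine a further 30 min, cAMP read after 60 min at room temperature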
Type: cell-based
Details: read-out: cAMP & FLIPR IC50 (nM) hA2b
// NB: equality with 500 nM counts as class 0; only IC50 strictly below is class 1

Problem: For the molecule Nc1nc(-c2ncco2)c(-c2ccc3nccn3c2)nc1C(=O)NCc1cscn1 , is IC50 under 500 nM?
class 0

Problem: For the molecule COc1ccccc1CNC(=O)c1nc(-c2ccc(=O)n(C)c2)c(-c2ccc(F)cc2)nc1N , is IC50 under 500 nM?
class 1

###

Molecular target: hADORA1/CHO (hA1 expressing) cells (Homo sapiens (Human))
Assay: cell-based
Conditions: FLIPR inhibition, 10 μM adenosine, read-out: cAMP & FLIPR IC50 (nM) hA1
I'd be grateful if you could share measured IC50 for these entries.
Answers are plain numbers, in nM.

Below are 6 compounds. Give each one its IC50.
1. COc1ccccc1CNC(=O)c1nc(-c2cc(C)nc(N)c2)c(-c2ccc(F)cc2)nc1N
2. COc1cc(F)ccc1CNC(=O)c1nc(-c2cc(C)nc(C)c2)c(-c2ccc(F)cc2)nc1N
3. COc1ccccc1CNC(=O)c1nc(-c2cc(C)nc(C)c2)c(-n2nccc2C)nc1N
4. Cc1cc(-c2nc(C(=O)NCc3ccccc3C)c(N)nc2-c2ccc(F)cc2)cc(C)n1
5. COc1cccc(CNC(=O)c2nc(-c3ccc(=O)n(C)c3)c(-c3ncco3)nc2N)n1
6. Cc1cnc2ccc(-c3nc(C(=O)NCc4cccc(N5CCC(N(C)C)C5)n4)c(N)nc3-c3ncco3)cn12 (single isomer, unassigned) [Cmpd. 232]

132
2630
216
4750
951
1500

###

I'd be grateful if you could share measured IC50 for these entries.
Target: mA2a/CHO (Mus musculus (Mouse))
Assay: cAMP inhibition assay in mA2a/CHO cells, 10 μM adenosine;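 note: compounds preincubated 30 min at 37 °C before the adenosine challenge, then 30 min further stimulation, readout after 60 min detection reagent incubation at room temperature in 384-well plates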
Type: cell-based
Conditions: read-out: cAMP & FLIPR IC50 (nM) mA2a
Numbers only, in nM.

COc1ccccc1CNC(=O)c1nc(-c2cc(C)nc(C)c2)c(-c2cnn(C)c2)nc1N : 601
CN(C)c1cccc(CNC(=O)c2nc(-c3ccc(=O)n(C)c3)c(-c3ncco3)nc2N)n1 : 86
Cc1cnc2ccc(-c3nc(C(=O)NCc4cccc(N5CCN(C)CC5)n4)c(N)nc3-c3ncco3)cn12 : 18
COc1cccc(CNC(=O)c2nc(-c3ccc(=O)n(C)c3)c(-c3ncco3)nc2N)n1 : 132
CO[C@H]1C[C@@H](NC(=O)c2nc(-c3ccc4ncc(C)n4c3)c(-c3ncco3)nc2N)C1 : 43
Cc1cnc2ccc(-c3nc(C(=O)NCC4CC(=O)N(C)C4)c(N)nc3-c3ncco3)cn12 (single isomer, unassigned; isomer 1) [Example 213] : 54

Report IC50 for Nc1nc(-c2ncco2)c(-c2ccc(=O)n(C3COC3)c2)nc1C(=O)NCc1c(F)cccc1F tested on mA2a/CHO (Mus musculus (Mouse)).
16

###

Biological target: hADORA1/CHO (hA1 expressing) cells (Homo sapiens (Human), UniProt P30542)
Sequence (P30542 whole entry): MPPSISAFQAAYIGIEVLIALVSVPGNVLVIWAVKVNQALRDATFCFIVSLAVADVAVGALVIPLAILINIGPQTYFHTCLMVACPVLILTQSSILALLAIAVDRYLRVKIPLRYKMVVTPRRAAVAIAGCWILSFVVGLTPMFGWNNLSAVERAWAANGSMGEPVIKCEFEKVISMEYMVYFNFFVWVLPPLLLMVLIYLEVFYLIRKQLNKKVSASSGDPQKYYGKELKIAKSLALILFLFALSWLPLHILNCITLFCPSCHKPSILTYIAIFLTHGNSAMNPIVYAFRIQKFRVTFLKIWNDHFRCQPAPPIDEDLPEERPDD
Experiment: cell-based
Settings: FLIPR inhibition, 10 μM adenosine, read-out: cAMP & FLIPR IC50 (nM) hA1
I'd be grateful if you could share measured IC50 for these entries.
Answers are plain numbers, in nM.

Take a look at these entries with their results.
Cc1cnc2ccc(-c3nc(C(=O)NCC4CCCCN4C)c(N)nc3-c3ncco3)cn12 (single isomer, unassigned; isomer 1) : 10000
CN(C)c1ccc(F)c(CNC(=O)c2nc(-c3ccc(=O)n(C)c3)c(-c3ncco3)nc2N)c1 : 1770
CN(C)c1cccnc1CNC(=O)c1nc(-c2ccc(=O)n(C)c2)c(-c2ncco2)nc1N : 32
Cc1cnc2ccc(-c3nc(C(=O)NCC4CCCCO4)c(N)nc3-c3ncco3)cn12 (single isomer, unassigned; isomer 2) [Example 166] : 358
CN(C)c1cccc(CNC(=O)c2nc(-c3ccc(=O)n(C)c3)c(-c3ncco3)nc2N)n1 : 804

Read the next record carefully.
Item Cc1cc(-c2nc(C(=O)NCc3cccc(N(C)C)n3)c(N)nc2-c2ccc(F)cc2)ccn1 has what recorded IC50?
414

###

I'd be grateful if you could share measured IC50 for these entries.
Target: hADORA1/CHO (hA1 expressing) cells (Homo sapiens (Human))
Assay: cell-based
Conditions: FLIPR inhibition, 10 μM adenosine, read-out: cAMP & FLIPR IC50 (nM) hA1

Take a look at these entries with their results.
Cc1cnc2ccc(-c3nc(C(=O)NC4CCC4)c(N)nc3-c3ncco3)cn12 [Example 218] : > 10000 nM
COCCNC(=O)c1nc(-c2ccc3ncc(C)n3c2)c(-n2nccn2)nc1N [Example 243] : 92 nM
Nc1nc(-c2ncco2)c(-c2ccc3nccn3c2)nc1C(=O)NCc1c(F)cccc1F [Example 32] : 494 nM

Below are 3 compounds. Give each one its IC50.
1. Cc1cnc2ccc(-c3nc(C(=O)NCC4CCN(C)C4=O)c(N)nc3-c3ccc(F)cc3)cn12 (single isomer, unassigned; isomer 1) [Example 267]
2. Cc1cnc2ccc(-c3nc(C(=O)NCCC#N)c(N)nc3-c3ncco3)cn12 [Example 142]
3. Cc1cnc2ccc(-c3nc(C(=O)NCc4cccc(C5CCN(C)CC5)n4)c(N)nc3-c3ncco3)cn12 [Example 176]

["2.8 nM", "10000 nM", "599 nM"]

###

Target: hADORA1/CHO (hA1 expressing) cells (Homo sapiens (Human), UniProt P30542)
Experiment: cell-based
Details: FLIPR inhibition, 10 μM adenosine, read-out: cAMP & FLIPR IC50 (nM) hA1
I'd be grateful if you could share measured IC50 for these entries.
One number for each entry, in nM.

Take a look at these entries with their results.
CN(C)c1cccc(CNC(=O)c2nc(-c3ccc(=O)n(C)c3)c(-c3ccc(F)cc3)nc2N)n1 : 72
Cc1cc(-c2nc(C(=O)NCc3c(F)cccc3OC(F)F)c(N)nc2-c2ccc(F)cc2)cc(C)n1 : 299

Below are 7 compounds. Give each one its IC50.
1. Cc1cc(-c2nc(CNC(=O)c3ccccn3)c(N)nc2-c2ccc(F)cc2)cc(C)n1
2. Cn1cc(-c2nc(C(=O)NCc3c(F)cccc3P(C)(C)=O)c(N)nc2-c2ncco2)ccc1=O
3. Cn1cnc2ccc(-c3nc(C(=O)NCc4ncccc4NCCO)c(N)nc3-c3ccc(F)cc3)cc21
4. CC(NC(=O)c1nc(-c2ccc(=O)n(C)c2)c(-c2ncco2)nc1N)c1c(F)cccc1F (stereo not shown) [Example 20]
5. CNc1ccc(F)c(CNC(=O)c2nc(-c3ccc(=O)n(C)c3)c(-c3ncco3)nc2N)n1
6. Nc1cccc(CNC(=O)c2nc(-c3ccc4nccn4c3)c(-c3ncco3)nc2N)n1
7. CC1CN(c2nc(C(=O)NCc3c(F)cccc3F)c(N)nc2-c2ccc(F)cc2)CC(C)O1 (stereo not shown)

3400
482
64
6610
90
7160
8840

Below are 6 compounds. Give each one its IC50.
1. Cc1cnc2ccc(-c3nc(C(=O)NCC4CN(C)CCO4)c(N)nc3-c3ccc(F)cc3)cn12 (single isomer, unassigned; isomer 1) [Example 246]
2. COc1cccnc1CNC(=O)c1nc(-c2cc(C)nc(C)c2)c(-c2ccc(F)cc2)nc1N
3. Nc1nc(-c2ncco2)c(-c2ccc(=O)n(C3COC3)c2)nc1C(=O)NCc1c(F)cccc1F
4. Cc1cnc2ccc(-c3nc(C(=O)N[C@H]4CCOC4)c(N)nc3-c3ncco3)cn12
5. Cn1cnc2ccc(-c3nc(C(=O)NCc4ncccc4F)c(N)nc3-c3ncco3)cc21
6. Cn1cc(-c2nc(C(=O)NCc3ncccc3OC(F)(F)F)c(N)nc2-c2ncco2)ccc1=O

[44, 388, 51, 6560, 2500, 214]
